The measurements presented in this section are drawn from the supplement of paper PMC6555819.

- Test system: PPARg:RXRa DBDmut IVT, anti-RXR (DBD mutation: RXRa K156A/R161A, NR concentration 270 nM, RXRa partner concentration 90 nM)
- protocol.details: PBM binding z-score (relative to random genomic background probes); higher = stronger binding; sequences stand for … in GC…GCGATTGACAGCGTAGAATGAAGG
Respond with yes (1) for PBM binding z-score values of 3 and above, no (0) for values below.

// known answers, use as guide
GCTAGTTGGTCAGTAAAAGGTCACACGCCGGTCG: no (0)
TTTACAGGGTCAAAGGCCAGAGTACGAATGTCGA: yes (1)
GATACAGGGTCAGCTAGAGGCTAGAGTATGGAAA: no (0)
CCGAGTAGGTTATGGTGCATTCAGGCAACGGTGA: yes (1)
TCGAGTTGGTCACGGAGGTCACACACGACGGGTA: no (0)

Query: Check this sequence for PBM binding z-score at or above 3: `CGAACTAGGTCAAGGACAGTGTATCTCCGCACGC`
Response: yes (1)

Query: Check this sequence for PBM binding z-score at or above 3: `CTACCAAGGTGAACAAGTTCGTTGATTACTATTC`
Response: no (0)

Query: Check this sequence for PBM binding z-score at or above 3: `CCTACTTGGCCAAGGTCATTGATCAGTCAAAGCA`
Response: no (0)

Query: Check this sequence for PBM binding z-score at or above 3: `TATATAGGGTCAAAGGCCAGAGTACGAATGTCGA`
Response: yes (1)

---

- Tested on: RARb:RXRa (NR concentration 270 nM, RXRa partner concentration 90 nM)
- protocol.details: PBM binding z-score (relative to random genomic background probes); higher = stronger binding; sequences stand for … in GC…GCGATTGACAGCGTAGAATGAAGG
Respond with Yes for PBM binding z-score values of 4 and above, No for values below.

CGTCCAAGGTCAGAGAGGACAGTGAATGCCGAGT: Yes
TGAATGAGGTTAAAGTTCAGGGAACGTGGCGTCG: No
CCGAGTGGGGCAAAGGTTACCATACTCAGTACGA: No
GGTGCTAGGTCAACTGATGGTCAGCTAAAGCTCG: Yes
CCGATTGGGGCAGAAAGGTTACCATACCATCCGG: No

Query: Check this sequence for PBM binding z-score at or above 4: `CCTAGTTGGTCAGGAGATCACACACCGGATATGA`
Response: No

Query: Check this sequence for PBM binding z-score at or above 4: `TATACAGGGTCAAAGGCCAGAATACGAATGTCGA`
Response: Yes

Query: Check this sequence for PBM binding z-score at or above 4: `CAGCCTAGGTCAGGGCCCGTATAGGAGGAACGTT`
Response: No

Query: Check this sequence for PBM binding z-score at or above 4: `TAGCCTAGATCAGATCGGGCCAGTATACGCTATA`
Response: No

Query: Check this sequence for PBM binding z-score at or above 4: `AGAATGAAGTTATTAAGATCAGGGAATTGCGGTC`
Response: No

Query: Check this sequence for PBM binding z-score at or above 4: `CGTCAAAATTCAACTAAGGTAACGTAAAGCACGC`
Response: No

Query: Check this sequence for PBM binding z-score at or above 4: `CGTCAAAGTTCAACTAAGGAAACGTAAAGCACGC`
Response: Yes

---

- Tested on: PXR homodimer (NR concentration 270 nM)
- protocol.details: PBM binding z-score (relative to random genomic background probes); higher = stronger binding; sequences stand for … in GC…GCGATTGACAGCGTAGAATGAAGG
reported.endpoint: PBM binding z-score
Number only, no unit.

Illustrative cases are given below, each with its answer.
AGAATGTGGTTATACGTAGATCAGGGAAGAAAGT: 0.82
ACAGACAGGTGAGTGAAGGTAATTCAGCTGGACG: -0.191
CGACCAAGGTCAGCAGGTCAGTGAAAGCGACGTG: -0.228
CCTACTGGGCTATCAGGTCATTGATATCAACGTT: 0.575
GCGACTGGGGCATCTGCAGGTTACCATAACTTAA: -0.507
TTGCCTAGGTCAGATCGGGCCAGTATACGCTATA: -0.653

Now for a further sequence.
Query: Read off the recorded PBM binding z-score for `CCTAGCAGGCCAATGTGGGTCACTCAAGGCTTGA`
Response: -0.313

---

- Tested on: THRa:RXRa (NR concentration 90 nM, RXRa partner concentration 90 nM)
- protocol.details: PBM binding z-score (relative to random genomic background probes); higher = stronger binding; sequences stand for … in GC…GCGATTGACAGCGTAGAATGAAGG
reported.endpoint: PBM binding z-score

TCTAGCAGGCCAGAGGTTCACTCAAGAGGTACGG: 0.0642

Query: Read off the recorded PBM binding z-score for `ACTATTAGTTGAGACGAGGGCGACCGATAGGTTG`
Response: 1.23

Query: Read off the recorded PBM binding z-score for `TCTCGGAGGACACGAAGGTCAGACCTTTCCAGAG`
Response: 3.08

Query: Read off the recorded PBM binding z-score for `CCTGCTAGGTCAATGGTCGGCTAAAGCAGCTCGC`
Response: 2.42

Query: Read off the recorded PBM binding z-score for `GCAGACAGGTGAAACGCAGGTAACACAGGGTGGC`
Response: 1.26

Query: Read off the recorded PBM binding z-score for `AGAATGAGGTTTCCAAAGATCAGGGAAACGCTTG`
Response: -0.118

---

- Test system: FXR:RXRa (NR concentration 270 nM, RXRa partner concentration 90 nM)
- protocol.details: PBM binding z-score (relative to random genomic background probes); higher = stronger binding; sequences stand for … in GC…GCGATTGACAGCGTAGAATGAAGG
Each entry below carries its reported PBM binding z-score.
Number only, no unit.

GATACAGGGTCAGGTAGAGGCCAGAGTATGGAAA: 4.61

Query: Read off the recorded PBM binding z-score for `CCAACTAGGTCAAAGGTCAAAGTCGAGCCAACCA`
Response: 8.45

Query: Read off the recorded PBM binding z-score for `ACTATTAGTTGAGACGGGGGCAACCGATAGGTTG`
Response: 1.28

Query: Read off the recorded PBM binding z-score for `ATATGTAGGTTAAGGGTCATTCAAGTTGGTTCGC`
Response: 5.1

Query: Read off the recorded PBM binding z-score for `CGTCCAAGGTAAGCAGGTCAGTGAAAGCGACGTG`
Response: 0.187

Query: Read off the recorded PBM binding z-score for `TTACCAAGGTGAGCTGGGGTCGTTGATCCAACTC`
Response: 0.996

---

- System: PPARg:RXRa 30nM:10nM, anti-RXR (NR concentration 30 nM, RXRa partner concentration 10 nM)
- protocol.details: PBM binding z-score (relative to random genomic background probes); higher = stronger binding; sequences stand for … in GC…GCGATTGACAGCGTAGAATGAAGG
reported.endpoint: PBM binding z-score
Number only, no unit.

Illustrative cases are given below, each with its answer.
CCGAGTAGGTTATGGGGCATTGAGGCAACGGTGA: 2.18
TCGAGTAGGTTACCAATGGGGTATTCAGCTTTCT: 1.34
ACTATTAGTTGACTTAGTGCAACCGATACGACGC: 0.433
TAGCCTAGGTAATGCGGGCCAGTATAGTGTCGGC: -0.676
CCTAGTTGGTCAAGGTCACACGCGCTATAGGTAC: 1.23
CTCTAAAGGTCGTGCTCAGGTGAGTATACCAAAC: 0.925

Query: Read off the recorded PBM binding z-score for `CCTAGTTGGTCAGAAGGTCACACACCGGATATGA`
Response: 1.8

Query: Read off the recorded PBM binding z-score for `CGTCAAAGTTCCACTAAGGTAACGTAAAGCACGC`
Response: -0.0574

---

- Test system: PPARg:RXRa 90nM:30nM, anti-RXR (NR concentration 90 nM, RXRa partner concentration 30 nM)
- protocol.details: PBM binding z-score (relative to random genomic background probes); higher = stronger binding; sequences stand for … in GC…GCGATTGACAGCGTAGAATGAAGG
Respond with yes (1) for PBM binding z-score values of 4 and above, no (0) for values below.

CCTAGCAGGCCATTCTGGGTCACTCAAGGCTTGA: no (0)
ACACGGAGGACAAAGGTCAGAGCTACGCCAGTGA: yes (1)
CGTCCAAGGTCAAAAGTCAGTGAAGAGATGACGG: yes (1)

Query: Check this sequence for PBM binding z-score at or above 4: `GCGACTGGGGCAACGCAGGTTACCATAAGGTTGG`
Response: no (0)

Query: Check this sequence for PBM binding z-score at or above 4: `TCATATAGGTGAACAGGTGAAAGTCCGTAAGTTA`
Response: yes (1)

Query: Check this sequence for PBM binding z-score at or above 4: `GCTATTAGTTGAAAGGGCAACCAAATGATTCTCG`
Response: yes (1)

Query: Check this sequence for PBM binding z-score at or above 4: `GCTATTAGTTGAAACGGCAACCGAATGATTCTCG`
Response: no (0)
